- Tested target: phosphorylated VEGF-R2Δ50 (FLVK-P) (Homo sapiens, UniProt P35968, DEL940-989/E990V)
- Construct: VEGF-R2Δ50 contains residues 806-939 and 990-1171; made in house; host or cells: baculovirus/insect cells
- Sequence (P35968 with tags, fused parts or gaps DEL940-989/E990V limits assumed): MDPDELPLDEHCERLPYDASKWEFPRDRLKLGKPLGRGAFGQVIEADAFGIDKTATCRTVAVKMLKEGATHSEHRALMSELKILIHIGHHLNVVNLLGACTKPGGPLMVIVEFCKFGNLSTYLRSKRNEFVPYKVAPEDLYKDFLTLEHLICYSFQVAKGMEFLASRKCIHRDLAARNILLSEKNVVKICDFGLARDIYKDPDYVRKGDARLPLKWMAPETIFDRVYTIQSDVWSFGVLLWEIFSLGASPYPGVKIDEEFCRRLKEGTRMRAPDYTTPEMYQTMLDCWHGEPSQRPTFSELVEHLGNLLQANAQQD
- Assay: VEGF-R2 coupled spectrophotometric assay, phosphorylated construct (FLVK-P)
- Type: biochemical
- Measurement context: @ 1 μM; read-out: FLVK-P percent inhibition
Reported property: inhibition at 1 µM (%)

Illustrative cases are given below, each with its answer.
Cc1cc(C)c2ccc(NC(=O)c3cccc(OCc4cncc5ccccc45)c3)nc2n1
9
CC(O)c1cccc(NC(=O)c2cccc(CSc3ncnc4[nH]ncc34)c2)c1 (stereo not drawn)
32
CN(C)c1cccc(NC(=O)c2cccc(CSc3ncnc4[nH]ncc34)c2)c1
26
COc1cc(C(=O)Nc2cccc(CSc3ncnc4[nH]ncc34)c2)ccc1O
42
O=C(Nc1ccccc1)c1cccc(CCc2cncc3ccccc23)c1
2
COc1cc(/C=C/c2cc(CNc3cccc(C(=O)Nc4ccccc4)c3)n[nH]2)ccc1O
16

A: CN(C)c1ccc(NC(=O)c2cccc(CSc3ncnc4[nH]ncc34)c2)cc1
B: CC(C)c1ccc(NC(=O)c2cccc(CSc3ncnc4[nH]ncc34)c2)cc1
C: CC1CC(NC(=O)c2cccc(CCc3cncc4ccccc34)c2)CC(C)(C)C1 (stereo not drawn)
Order each entry by recorded inhibition at 1 µM, climbing from the minimum. # format: label list in the order the request specifies
A, C, B
